# Tested on: Neuregulin-1 EGF-like domain
# ASSAY METHOD TEXT: small molecules binding NRG1 EGF domain – biochemical, small-molecule microarray, 635 nm fluorescence, primary screen (AID 1081);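 also: binding of the protein to compounds printed on small-molecule microarray slides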
# ASSAY CONDITIONS: higher = more signal
Catalogue of composite z-score values
Answer with a number only.

{"columns": ["COMPOUND", "METRIC", "RECORDED NUMBER"],
 "data": [
  ["COCCOC(=O)N1C(=O)[C@@]2(c3cc(C#Cc4ccc(OC)cc4)ccc31)[C@H](C(=O)N1CCc3cc(OC)c(OC)cc3C1)[C@H]1C(=O)O[C@H](c3ccccc3)[C@H](c3ccccc3)N1[C@@H]2c1ccc(O)cc1", "composite z-score", 1.19],
  ["COCC1=C([C@H](O)CCc2ccccc2)[C@H](CO)[C@@H]2C(=O)N(C)C(=O)[C@@H]2C1", "composite z-score", 0.15],
  ["COCCOC(=O)N1C(=O)[C@@]2(c3cc(C#CC4(O)CCCCCC4)ccc31)[C@H](C(=O)N1CCc3cc(OC)c(OC)cc3C1)[C@H]1C(=O)O[C@H](c3ccccc3)[C@H](c3ccccc3)N1[C@@H]2c1ccccc1OCCO", "composite z-score", 1.22],
  ["COc1cccc(C[C@H]2C[C@@H](CO[Si](C(C)C)(C(C)C)C(C)C)N3C(=O)[C@]4(C(C)=O)O[C@]23[C@H]2C(=O)N(C)C(=O)[C@H]24)c1", "composite z-score", 0.996],
  ["COc1ccc(C#Cc2ccc3c(c2)[C@]2(C(=O)N3)[C@H](C(N)=O)[C@H]3C(=O)O[C@H](c4ccccc4)[C@H](c4ccccc4)N3[C@@H]2c2ccc(O)cc2)cc1", "composite z-score", 1.38],
  ["COCCCNC(=O)[C@]1(Cc2ccccc2)N=C(c2ccc(OCCCO)cc2)O[C@@H]1c1ccccc1N=[N+]=[N-]", "composite z-score", 1.2],
  ["CCOC(=O)C1=CC[C@@H](c2ccccc2)N(S(=O)(=O)c2ccc(C)cc2)[C@H]1C=C(C)C", "composite z-score", 0.957],
  ["COc1cc(C(O)C2C=CC3C(=O)NC(=O)C3N2Nc2ccc(Cl)cc2Cl)cc(OC)c1OC (stereo not drawn)", "composite z-score", 1.21],
  ["O=C1OCC=C[C@H]2OC34C=CCN(CCN5CCOCC5)C(=O)[C@H]3N(CCCCCO)C(=O)[C@@H]4[C@@H]12 (stereo partly drawn)", "composite z-score", 1.43],
  ["C=CCOc1ccc([C@@H]2CC=C(C(=O)OCC)[C@H](c3cccc(Br)c3)N2S(=O)(=O)c2ccc(C)cc2)cc1", "composite z-score", 0.0455]
]}

Query: Could you share which composite z-score value was measured for "CC(C)CNC(=O)[C@@]1(C)c2ccccc2C(=O)N(Cc2ccccc2)[C@H]1c1ccc(CO)cc1" ?
Reply: 0.614

Query: Please look up its composite z-score: "Cc1ccc(S[C@]2(C(=O)O)CC(=O)N(C3CCCCC3)[C@@H]2c2ccc(CO)cc2)cc1"
Reply: 0.962

====

# composite z-score listing for each entry below
# ASSAY METHOD TEXT: small molecules captured by biotinylated probe aFGF10 – biochemical, small-molecule microarray, fluorescence 635/667, stem cell growth factor project, primary screen (AID 1071);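 also: score merges 667 nm spot intensity and signal to noise from triplicate slides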
# ASSAY CONDITIONS: higher = more signal
Number only, please.

Please review the following examples before continuing.
{"columns": ["COMPOUND", "composite z-score"],
 "data": [
  ["COCCOC(=O)N1C(=O)[C@@]2(c3cc(C#Cc4ccc(OC)cc4)ccc31)[C@H](C(N)=O)[C@H]1C(=O)O[C@H](c3ccccc3)[C@H](c3ccccc3)N1[C@@H]2c1ccc(OCCO)cc1", 0.62],
  ["COCCCNC(=O)[C@]1(Cc2ccccc2)N=C(c2ccc(OCCCO)cc2)O[C@@H]1c1ccccc1N=[N+]=[N-]", 0.632],
  ["CC(=O)NCCCC[C@@H]1NC(=O)[C@H]2C[C@@H](C(=O)NCCCCCN)[C@@H](c3cccc(OCCO)c3)N2C1=O", 0.792],
  ["C=CCOC(=O)[C@@H]1[C@H]2C(=O)O[C@H](c3ccccc3)[C@H](c3ccccc3)N2[C@H](c2ccc(OCCOC(=O)[C@@H]3C[C@@H]4C(=O)N[C@@H](CCCCNC(C)=O)C(=O)N4[C@@H]3c3ccc(O)cc3)cc2)[C@@]12C(=O)Nc1ccc(I)cc12", 0.722],
  ["CC(C)CCC[C@@H](C)[C@H]1CC[C@@]2(C)C3=C(CC[C@]12C)[C@@]1(C)CC[C@H](OC(=O)C(C)(C)C)C(C)(C)C1CC3 (some centres not stated)", 0.298]
]}

Query: Fill blank: measured composite z-score of the compound "C=C(/C(=C/C[C@@H](OC(C)=O)c1ccccc1OCCO)c1cnc2ccccc2c1)C(C)C" is ____.
Reply: 0.758

Query: What value of composite z-score has been recorded for this entry: "C=C(CCCC)/C(=C/C[C@H](OC(=O)c1ccncc1)c1ccc(CO)o1)c1cc(C(=O)OC)ccc1OC"
Reply: 0.418
